- assay system: furin, P09958;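 also: purified furin at 1:10 enzyme:substrate in 50 mM HEPES pH 7.5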
- Sequence (P09958 whole entry): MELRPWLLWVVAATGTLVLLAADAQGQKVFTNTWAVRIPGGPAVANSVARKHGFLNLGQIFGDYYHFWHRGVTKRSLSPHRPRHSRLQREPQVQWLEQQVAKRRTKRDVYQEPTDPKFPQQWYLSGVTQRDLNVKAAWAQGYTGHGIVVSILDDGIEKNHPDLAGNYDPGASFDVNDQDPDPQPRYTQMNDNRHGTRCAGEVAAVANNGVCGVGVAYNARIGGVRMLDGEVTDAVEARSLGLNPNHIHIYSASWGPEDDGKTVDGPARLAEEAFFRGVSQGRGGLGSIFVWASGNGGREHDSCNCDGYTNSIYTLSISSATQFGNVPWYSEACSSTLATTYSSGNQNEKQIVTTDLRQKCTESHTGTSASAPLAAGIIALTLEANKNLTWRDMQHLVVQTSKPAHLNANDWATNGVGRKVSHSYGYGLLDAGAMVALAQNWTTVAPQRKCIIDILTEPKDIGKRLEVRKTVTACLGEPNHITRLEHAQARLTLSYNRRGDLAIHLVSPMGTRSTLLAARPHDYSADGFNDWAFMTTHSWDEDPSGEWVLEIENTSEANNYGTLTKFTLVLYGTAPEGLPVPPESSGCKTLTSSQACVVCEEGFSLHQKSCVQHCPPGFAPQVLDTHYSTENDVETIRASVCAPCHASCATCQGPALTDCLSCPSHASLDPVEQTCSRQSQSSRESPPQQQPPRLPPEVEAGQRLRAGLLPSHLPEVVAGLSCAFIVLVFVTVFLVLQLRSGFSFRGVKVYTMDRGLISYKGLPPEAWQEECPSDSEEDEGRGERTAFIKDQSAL
- run description: furin cleavage Z-score vs untreated control; higher = more cleavage, active = 3.5 or more, inactive = 1 or less, 8 variable residues between constant flanks
- condition context: 30 min
Some of the results follow. The true hit rate is not given.
readout name: furin cleavage Z-score
Enter a number only.

Request: Provide only the value of recorded furin cleavage Z-score for CARLRKQARAAGNASASA [FS-2711]
Result: 3

Request: Provide only the value of recorded furin cleavage Z-score for CAIPRRHTRSAGNASASA [FS-1015]
Result: 4.46

Request: Provide only the value of recorded furin cleavage Z-score for CALKVPYFVRAGNASASA [HC614]
Result: 0.218

Request: Provide only the value of recorded furin cleavage Z-score for CARRRRNKRYAGNASASA [FS-1403]
Result: 10.6
